test system: Escherichia coli (E. coli - ATCC #10536); experiment: Automated assessment of efficacy in model surfactant solution (2.85% sodium cocoyl glycinate + 1.85% sodium lauroamphoacetate, pH 10), 15 seconds exposure; type: cell-based; conditions: single active alone at […] w/v; model surfactant solution, pH 10, 15 s exposure
Property: No. of replicates showing growth (out of 4); scope: individual compounds
Property: No. of replicates showing growth (out of 4)

compound="Oc1ccc(Cc2ccccc2)cc1 [4-hydroxydiphenylmethane]" endpoint_value=4
compound="Oc1ccccc1Cc1ccccc1 [2-hydroxydiphenylmethane]" endpoint_value=4
compound="Cc1cc(O)c(C(C)C)cc1Cl [4-chloro-2-isopropyl-5-methylphenol, reference compound]" endpoint_value=4
compound="C=C(C)C1CC=C(C)C(O)C1 (stereo not drawn)" endpoint_value=4
compound="C=C(C)C1CCC(C)CC1O (stereo not drawn)" endpoint_value=4
compound="C=C(C)C1CCC(C)C(O)C1 (stereo not drawn)" endpoint_value=4

====

Test system: Escherichia coli (E. coli - ATCC #10536)
Assay: Automated assessment of efficacy in model surfactant solution (2.85% sodium cocoyl glycinate + 1.85% sodium lauroamphoacetate, pH 10), 15 seconds exposure
Assay type: cell-based
Conditions: single active alone at 0.2% w/v; model surfactant solution, pH 10, 15 s exposure
Description: In these examples, the efficacy of combinations of actives were tested in a surfactant cleansing formulation comprising 2.85% sodium cocoyl glycinate and 1.85% sodium, lauroamphoacetate. […] The efficacy of the combinations of the present invention was determined against Escherichia coli (E. coli—ATCC #10536), at a concentration of approximately 1×10^8 bacteria per mL. […]
Property: ΔOD 590 nm = OD590 (time = 16 hours) − OD590 (time zero), Mean; scope: individual compounds
Property: ΔOD 590 nm = OD590 (time = 16 hours) − OD590 (time zero), Mean

compound="Cc1cc(O)c(C(C)C)cc1Cl [4-chloro-2-isopropyl-5-methylphenol, reference compound]" system_tested="Escherichia coli (E. coli - ATCC #10536)" endpoint_value=0.60
compound="Oc1ccc(Cc2ccccc2)cc1 [4-hydroxydiphenylmethane]" system_tested="Escherichia coli (E. coli - ATCC #10536)" endpoint_value=0.61
compound="Oc1ccccc1Cc1ccccc1 [2-hydroxydiphenylmethane]" system_tested="Escherichia coli (E. coli - ATCC #10536)" endpoint_value=0.63
compound="C=C(C)C1CCC(C)C(O)C1 (stereo not shown)" system_tested="Escherichia coli (E. coli - ATCC #10536)" endpoint_value=0.63

====

system: Escherichia coli (E. coli - ATCC #10536); test: Automated assessment of efficacy in model surfactant solution (2.85% sodium cocoyl glycinate + 1.85% sodium lauroamphoacetate, pH 10), 15 seconds exposure; type: cell-based; conditions: single active alone at […] w/v; model surfactant solution, pH 10, 15 s exposure
Property: ΔOD 590 nm = OD590 (time = 16 hours) − OD590 (time zero), Mean; scope: individual compounds
Property: ΔOD 590 nm = OD590 (time = 16 hours) − OD590 (time zero), Mean

compound="Cc1cc(O)c(C(C)C)cc1Cl [4-chloro-2-isopropyl-5-methylphenol, reference compound]" endpoint_value=0.59
compound="C=C(C)C1CCC(C)CC1O (centres unmarked)" endpoint_value=0.64
compound="C=C(C)C1CCC(C)C(O)C1 (centres unmarked)" endpoint_value=0.66
compound="Oc1ccccc1Cc1ccccc1 [2-hydroxydiphenylmethane]" endpoint_value=0.64
compound="Oc1ccc(Cc2ccccc2)cc1 [4-hydroxydiphenylmethane]" endpoint_value=0.54

The origin of these recorded values is patent US9832995B2.
